Origin of measurements: patent US20250382305A1

# Tested on: Total ATXN3 (tATXN3) protein
# assay.method.text: Endogenous Total ATXN3 (tATXN3) Protein Assay (MSD immunoassay of cell lysates)
# Type: cell-based
# condition.description: average IC50, total ATXN3 protein in cell lysate after 48 h with compound (Table 1)
measured.endpoint: IC50

Worked examples follow.
{"columns": ["compound", "target.of.assay", "IC50"],
 "data": [
  ["N[C@@H]1CCCO[C@H]1c1c(I)c2nc(Cl)nc(NCc3ccco3)c2n1C(F)F [Compound 422]", "Total ATXN3 (tATXN3) protein", "30 to 300 nM"],
  ["N[C@@H]1CCC[C@H]1c1cc2nc(Cl)cc(NCc3cccs3)c2s1 [Compound 112]", "Total ATXN3 (tATXN3) protein", "> 1000 nM"],
  ["Cc1c([C@H]2OCCC[C@@H]2N)sc2c(NCc3ccccc3F)cc(Cl)nc12 [Compound 33]", "Total ATXN3 (tATXN3) protein", "30 to 300 nM"]
]}

As a next step, examine the compound that follows.
Q: Endpoint output: IC50 of N[C@H]1CC=CC[C@@H]1c1sc2c(NCc3ccncc3F)cc(Cl)nc2c1Cl [Compound 239] . Value?
A: ≤ 30 nM
